The measured values listed here are drawn from the supplement of paper PMC10567573.

B1: BTBD1 (parent)
chain: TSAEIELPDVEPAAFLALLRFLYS

# Variants of: B1
# method_description: protein stability index of a GFP-peptide fusion (GPS, HEK-293T) (PSI 1-6); higher = more stable;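 note: lentivirally expressed fusions sorted by FACS into six bins by GFP to DsRed ratio, PSI derived from sequencing read proportions per bin multiplied by bin number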
# run_conditions: c terminus: a fixed tail appended
recorded_metric: protein stability index
// print number alone

// below: answered variants
{"sequence_change": "L18K", "value_observed": 1.95}
{"sequence_change": "L18T", "value_observed": 1.77}
{"sequence_change": "V10H", "value_observed": 1.65}

The variant listed as V10I has a reported protein stability index of 1.8

The variant listed as L22Q has a reported protein stability index of 1.5

The variant listed as P12L has a reported protein stability index of 1.67
